System: HBV
test protocol: Anti-HBV activity in HepG2.117 cell line (Tet-off, intracellular HBV DNA, realtime PCR)
Assay type: cell-based
test parameters: HepG2.117 cells, 3 days of treatment, intracellular HBV DNA; read-out: HepG2 117 EC50
pEC50 listing for selected molecules.
Field pEC50 (float): negative decimal logarithm of the concentration in molar.

Cc1cc(NC(=O)c2cccc(S(=O)(=O)NC3CCCC(O)C3)c2)ccc1F (stereo not shown) [Compound 134]; 6.24
Cc1cc(NC(=O)c2cccc(S(=O)(=O)NC3Cc4ccccc4C3O)c2)ccc1F (single isomer, unassigned) [Compound 141d]; 5.94
Cc1cc(NC(=O)c2cccc(S(=O)(=O)NC3CCCC(O)C3)c2)ccc1F (single isomer, unassigned) [Compound 134a]; 6.14
Cc1cc(NC(=O)c2cccc(S(=O)(=O)NC3Cc4ccccc4C3O)c2)ccc1F (single isomer, unassigned) [Compound 141b]; 6.64
Cc1cc(NC(=O)c2cccc(S(=O)(=O)NC3CCCC(O)C3)c2)ccc1F (single isomer, unassigned) [Compound 134c]; 6.42

Query: Give pEC50; test system HBV; molecule Cc1cc(NC(=O)c2cccc(S(=O)(=O)NC3CCC(O)C3)c2)ccc1F (single isomer, unassigned) [Compound 145b]
Result: 6.24

Query: Give pEC50; test system HBV; molecule Cc1cc(NC(=O)c2cccc(S(=O)(=O)NC3Cc4ccccc4C3O)c2)ccc1F (single isomer, unassigned) [Compound 141c]
Result: 6.54
